Tested on: kale 'Red Russian'
Assay: Content analysis of kale: protein, amino acids, fiber, fatty acids, minerals (Example 4, Tables 12-14)
Format: in vivo
Conditions: 28 DA-A, first-listed rate g ai/ha: chlropyrifos ###, chlorothalonil ###, paclobutrazol 3.2, mepiquat-chloride 12, + NIS 0.3 % v/v
Measured Parameter: Proline, Percent Increase over the Untreated Check (on a % dry matter basis) (% check)
Give your result in % check as a bare value.

# Proline, Percent Increase over the Untreated Check (on a % dry matter basis) (molecule: CC(C)(C)[C@@H](O)[C@@H](Cc1ccc(Cl)cc1)n1cncn1 (racemic) ) is −4

The molecule identified as N#Cc1c(Cl)c(Cl)c(Cl)c(C#N)c1Cl registered its Proline, Percent Increase over the Untreated Check (on a % dry matter basis) at 6

For C[N+]1(C)CCCCC1 [mepiquat-chloride] the molecule record lists Proline, Percent Increase over the Untreated Check (on a % dry matter basis) as 8

# Proline, Percent Increase over the Untreated Check (on a % dry matter basis) of CCOP(=S)(OCC)Oc1nc(Cl)c(Cl)cc1Cl = −2

----------
Tested on: basil 'Genovese'
Test: Content analysis of basil: protein, minerals (Example 4, Tables 10-11)
Assay type: in vivo
Details: 28 DA-A, rates g ai/ha: chlropyrifos 1120, chlorothalonil 2630, paclobutrazol 3.23, mepiquat-chloride 12.3, Isoxadifen 8, Napthalic anhydride 264, + NIS 0.25 % v/v
So I've got a bunch of molecules here, and I need their Protein, Percent Increase Over the Untreated Check (on a % dry matter basis) values.
Give the value in % check but do not write % check after it.

The molecule identified as O=C1OC(=O)c2cccc3cccc1c23 [napthalic anhydride] registered its Protein, Percent Increase Over the Untreated Check (on a % dry matter basis) at 32

Sure, the documented Protein, Percent Increase Over the Untreated Check (on a % dry matter basis) for CCOC(=O)C1=NOC(c2ccccc2)(c2ccccc2)C1 is 14

# molecule C[N+]1(C)CCCCC1 [mepiquat-chloride] ; its Protein, Percent Increase Over the Untreated Check (on a % dry matter basis) = 13

Briefly, Protein, Percent Increase Over the Untreated Check (on a % dry matter basis) measured for CCOP(=S)(OCC)Oc1nc(Cl)c(Cl)cc1Cl : 20

Field Protein, Percent Increase Over the Untreated Check (on a % dry matter basis) (entry CC(C)(C)[C@@H](O)[C@@H](Cc1ccc(Cl)cc1)n1cncn1 (racemic) ) reads 6

// Protein, Percent Increase Over the Untreated Check (on a % dry matter basis) lookup, molecule = N#Cc1c(Cl)c(Cl)c(Cl)c(C#N)c1Cl , result: 3

----------
Test system: kale 'Red Russian'
Experiment: Visual injury of kale after insecticide, fungicide, PGRs, safeners (Example 4)
Settings: 14 DA-A, rates g ai/ha: chlropyrifos 1120, chlorothalonil 2630, paclobutrazol 3.23, mepiquat-chloride 12.3, + NIS 0.25 % v/v
Measured Parameter: Phytotoxicity Stunting
Just so you know, I need the unit written after the number.

# CCOP(=S)(OCC)Oc1nc(Cl)c(Cl)cc1Cl with kale 'Red Russian': Phytotoxicity Stunting is 9%

Lab note: compound CC(C)(C)[C@@H](O)[C@@H](Cc1ccc(Cl)cc1)n1cncn1 (racemic) tested on kale 'Red Russian'; recorded Phytotoxicity Stunting was 19%

Bench note, kale 'Red Russian': entry N#Cc1c(Cl)c(Cl)c(Cl)c(C#N)c1Cl , its Phytotoxicity Stunting = 5%

Record C[N+]1(C)CCCCC1 [mepiquat-chloride] has kale 'Red Russian' Phytotoxicity Stunting equal to 16%

----------
System: basil 'Genovese'
Experiment: Visual injury of basil after insecticide, fungicide, PGRs, safeners (Example 4)
Conditions: 7 DA-A, rates g ai/ha: chlropyrifos 1120, chlorothalonil 2630, paclobutrazol 3.23, mepiquat-chloride 12.3, Isoxadifen 8, Napthalic anhydride 264, + NIS 0.25 % v/v
Assignment: determine reported Phytotoxicity Chlorosis for the given compounds.
Your answer should be a plain number; it is taken to be in %.

Consider CCOP(=S)(OCC)Oc1nc(Cl)c(Cl)cc1Cl [chlropyrifos] . Its measured Phytotoxicity Chlorosis is 8

Lookup result for N#Cc1c(Cl)c(Cl)c(Cl)c(C#N)c1Cl [chlorothalonil] ; measured Phytotoxicity Chlorosis: 5

Phytotoxicity Chlorosis reading for C[N+]1(C)CCCCC1 [mepiquat-chloride] : 3

// Phytotoxicity Chlorosis lookup, compound = CCOC(=O)C1=NOC(c2ccccc2)(c2ccccc2)C1 [isoxadifen, isoxadifen-ethyl] , result: 8

Query O=C1OC(=O)c2cccc3cccc1c23 [napthalic anhydride] yields Phytotoxicity Chlorosis of 0

The compound listed as CC(C)(C)[C@@H](O)[C@@H](Cc1ccc(Cl)cc1)n1cncn1 (racemic) [paclobutrazol] shows Phytotoxicity Chlorosis equal to 8

----------
Test system: kale 'Red Russian'
Test: Content analysis of kale: protein, amino acids, fiber, fatty acids, minerals (Example 4, Tables 12-14)
Format: in vivo
Details: 28 DA-A, second-listed rate g ai/ha: chlropyrifos ###, chlorothalonil ###, paclobutrazol 9.7, mepiquat-chloride 37, + NIS 0.3 % v/v
Task for the reader: assign each of the following compounds its reported Cysteine, Percent Increase over the Untreated Check (on a % dry matter basis).
Enter your answer as a number in % check; do not include the unit.

Given item CCOP(=S)(OCC)Oc1nc(Cl)c(Cl)cc1Cl [chlropyrifos] , the value recorded as its Cysteine, Percent Increase over the Untreated Check (on a % dry matter basis) is 6

Lab note: N#Cc1c(Cl)c(Cl)c(Cl)c(C#N)c1Cl [chlorothalonil] gave Cysteine, Percent Increase over the Untreated Check (on a % dry matter basis) of −6

Per the records, this compound ( CC(C)(C)[C@@H](O)[C@@H](Cc1ccc(Cl)cc1)n1cncn1 (racemic) [paclobutrazol] ) has Cysteine, Percent Increase over the Untreated Check (on a % dry matter basis) equal to 6

Form field Cysteine, Percent Increase over the Untreated Check (on a % dry matter basis), entry C[N+]1(C)CCCCC1 [mepiquat-chloride] : −6

----------
Tested on: basil 'Genovese'
Test: Visual injury of basil after insecticide, fungicide, PGRs, safeners (Example 4)
Conditions: 28 DA-A, rates g ai/ha: chlropyrifos 3370, chlorothalonil 7900, paclobutrazol 9.7, mepiquat-chloride 37, Isoxadifen 16, Napthalic anhydride 527, + NIS 0.25 % v/v
Provide the reported Phytotoxicity Stunting of each item.
Please respond with the number in % and leave the unit unwritten.

Phytotoxicity Stunting reading for C[N+]1(C)CCCCC1 [mepiquat-chloride] : 0

Form field Phytotoxicity Stunting, entry O=C1OC(=O)c2cccc3cccc1c23 [napthalic anhydride] : 7

Phytotoxicity Stunting measured on N#Cc1c(Cl)c(Cl)c(Cl)c(C#N)c1Cl [chlorothalonil] = 10

GET /value?item= CC(C)(C)[C@@H](O)[C@@H](Cc1ccc(Cl)cc1)n1cncn1 (racemic) [paclobutrazol] &field=Phytotoxicity Stunting returns 2

// sample CCOC(=O)C1=NOC(c2ccccc2)(c2ccccc2)C1 [isoxadifen, isoxadifen-ethyl] , its Phytotoxicity Stunting was 8

Value of Phytotoxicity Stunting reported for the molecule CCOP(=S)(OCC)Oc1nc(Cl)c(Cl)cc1Cl [chlropyrifos] is 12

----------
Please go through the items and note down their Soluble protein, Percent Increase Over the Untreated Check (on a % dry matter basis).
Tested on: basil 'Genovese'
Assay: Content analysis of basil: protein, minerals (Example 4, Tables 10-11)
Assay type: in vivo
Conditions: 28 DA-A, rates g ai/ha: chlroprifos 3370, chlorothalonil 7900, paclobutrazol 9.7, mepiquat-chloride 37, Isoxadifen 16, Napthalic anhydride 527, + NIS 0.25 % v/v
All answers are understood in % check, so give the number only.

Reported Soluble protein, Percent Increase Over the Untreated Check (on a % dry matter basis) for N#Cc1c(Cl)c(Cl)c(Cl)c(C#N)c1Cl was 42

// recorded Soluble protein, Percent Increase Over the Untreated Check (on a % dry matter basis) for C[N+]1(C)CCCCC1 [mepiquat-chloride] : 27

Field Soluble protein, Percent Increase Over the Untreated Check (on a % dry matter basis) (entry CC(C)(C)[C@@H](O)[C@@H](Cc1ccc(Cl)cc1)n1cncn1 (racemic) ) reads 12

The reported value for CCOC(=O)C1=NOC(c2ccccc2)(c2ccccc2)C1 in terms of Soluble protein, Percent Increase Over the Untreated Check (on a % dry matter basis) is 4

Noted for CCOP(=S)(OCC)Oc1nc(Cl)c(Cl)cc1Cl : its Soluble protein, Percent Increase Over the Untreated Check (on a % dry matter basis) reads 42

# compound O=C1OC(=O)c2cccc3cccc1c23 [napthalic anhydride] ; its Soluble protein, Percent Increase Over the Untreated Check (on a % dry matter basis) = 31

----------
Tested on: kale 'Red Russian'
Experiment: Content analysis of kale: protein, amino acids, fiber, fatty acids, minerals (Example 4, Tables 12-14)
Format: in vivo
Settings: 28 DA-A, second-listed rate g ai/ha: chlropyrifos ###, chlorothalonil ###, paclobutrazol 9.7, mepiquat-chloride 37, + NIS 0.3 % v/v
Measured Parameter: Glutamic acid, Percent Increase over the Untreated Check (on a % dry matter basis) (% check)
Supply the numeric figure in % check, leaving out any unit text.

Field Glutamic acid, Percent Increase over the Untreated Check (on a % dry matter basis) (system: kale 'Red Russian') for entry N#Cc1c(Cl)c(Cl)c(Cl)c(C#N)c1Cl = −5

Bench note, kale 'Red Russian': entry CC(C)(C)[C@@H](O)[C@@H](Cc1ccc(Cl)cc1)n1cncn1 (racemic) , its Glutamic acid, Percent Increase over the Untreated Check (on a % dry matter basis) = 16

Tested on kale 'Red Russian', the item CCOP(=S)(OCC)Oc1nc(Cl)c(Cl)cc1Cl showed Glutamic acid, Percent Increase over the Untreated Check (on a % dry matter basis) equal to 12

Entry C[N+]1(C)CCCCC1 [mepiquat-chloride] , tested on kale 'Red Russian', has a reported Glutamic acid, Percent Increase over the Untreated Check (on a % dry matter basis) of −2
